Test system: Sam68 (KHDRBS1)
Assay: compounds binding KHDRBS1 protein – biochemical, small-molecule microarray, 635 nm fluorescence, primary screen (AID 1125);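 also: score merges 667 nm channel intensity with signal to noise over triplicate slides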
Conditions: higher = more signal
Measured Metric: composite z-score

[
  {
    "Compound": "COCCOC(=O)N1C(=O)[C@@]2(c3cc(C#Cc4ccc(OC)cc4)ccc31)[C@H](c1ccc(O)cc1)N1[C@H](c3ccccc3)[C@H](c3ccccc3)OC(=O)[C@H]1[C@@H]2C(=O)N1CCN(c2ncccn2)CC1",
    "Measured Metric": "composite z-score",
    "Recorded Number": 1.2
  },
  {
    "Compound": "O=C1C2C=CC(C(O)CCc3ccccc3)N(Nc3ccccc3)C2C(=O)N1c1ccccc1 (centres undefined)",
    "Measured Metric": "composite z-score",
    "Recorded Number": 1.3
  },
  {
    "Compound": "CCCNC(=O)[C@@]1(C)c2ccccc2C(=O)N(Cc2cc(F)cc(C(F)(F)F)c2)[C@H]1c1ccc(CO)cc1",
    "Measured Metric": "composite z-score",
    "Recorded Number": -0.0127
  },
  {
    "Compound": "COC(=O)[C@@]1(Cc2ccc(F)cc2)[C@H]2c3cc(C(=O)N(C)C)n(CCCNc4ccc(C(F)(F)F)cc4Cl)c3C[C@H]2CN1C(=O)c1ccccc1",
    "Measured Metric": "composite z-score",
    "Recorded Number": 1.3
  },
  {
    "Compound": "COC(=O)c1c2oc(c1C(=O)OC)C(=O)N[C@H](Cc1ccccc1)Cn1nncc1C1(CCCCC1)NC(=O)N[C@H](CO)CC2",
    "Measured Metric": "composite z-score",
    "Recorded Number": 0.702
  },
  {
    "Compound": "COc1cc(NN2C(C(O)c3ccccc3)C=CC3C(=O)N(c4ccccc4)C(=O)C32)cc(OC)c1OC (centres undefined)",
    "Measured Metric": "composite z-score",
    "Recorded Number": 1.31
  },
  {
    "Compound": "COCCCNC(=O)[C@]1(Cc2ccccc2N=[N+]=[N-])N=C(c2ccc(OCCCO)cc2)O[C@@H]1c1ccccc1CN=[N+]=[N-]",
    "Measured Metric": "composite z-score",
    "Recorded Number": 1.12
  },
  {
    "Compound": "C[C@]1(C(=O)NCC(F)(F)F)c2ccccc2C(=O)N(Cc2cc(F)cc(C(F)(F)F)c2)[C@H]1c1ccc(CO)cc1",
    "Measured Metric": "composite z-score",
    "Recorded Number": 1.11
  },
  {
    "Compound": "CCCNC(=O)[C@@]1(C)c2ccccc2C(=O)N(Cc2cc(C(F)(F)F)cc(C(F)(F)F)c2)[C@H]1c1ccc(CO)cc1",
    "Measured Metric": "composite z-score",
    "Recorded Number": 0.356
  },
  {
    "Compound": "CCCNC(=O)[C@@]1(C)c2ccccc2C(=O)N(Cc2ccc(OC(F)(F)F)cc2)[C@H]1c1ccc(CO)cc1",
    "Measured Metric": "composite z-score",
    "Recorded Number": 0.565
  },
  {
    "Compound": "C=C(CCCC)C(=O)CC[C@@H](OC(=O)c1ccccc1-c1ccccc1C(=O)O)c1ccc(CO)o1",
    "Measured Metric": "composite z-score",
    "Recorded Number": 1.18
  },
  {
    "Compound": "C=CCNC(=O)[C@H]1[C@@H]2C(=O)O[C@@H](c3ccccc3)[C@@H](c3ccccc3)N2[C@@H](c2ccc(O)cc2)[C@]12C(=O)Nc1ccc(C#Cc3ccc(OC)cc3)cc12",
    "Measured Metric": "composite z-score",
    "Recorded Number": 1.3
  },
  {
    "Compound": "O=C1O[C@H](c2ccccc2)[C@H](c2ccccc2)N2[C@H]1[C@@H](C(=O)Nc1nc3ccccc3s1)[C@]1(C(=O)Nc3ccc(C#CC4=CCCCC4)cc31)[C@H]2c1ccc(OCCO)cc1",
    "Measured Metric": "composite z-score",
    "Recorded Number": 1.3
  },
  {
    "Compound": "CCN(CC)c1ccc(N2CC=CC34O[C@@H]5/C=C\\CCC(C)OC(=O)C5[C@H]3C(=O)N(CCCCCCO)[C@@H]4C2=O)cc1 (some centres undefined)",
    "Measured Metric": "composite z-score",
    "Recorded Number": -0.264
  },
  {
    "Compound": "COc1ccc([Si](C)(C)[C@H]2[C@H](CC(=O)N3CCC[C@H]3CO)O[C@@]3(C(=O)N(c4ccccc4)c4ccccc43)[C@@H]2C)cc1",
    "Measured Metric": "composite z-score",
    "Recorded Number": -0.126
  },
  {
    "Compound": "C=CCN1Cc2ccccc2C[C@]2(N=C(c3ccc(OCCCO)cc3)O[C@@H]2c2ccccc2)C1=O",
    "Measured Metric": "composite z-score",
    "Recorded Number": 1.3
  },
  {
    "Compound": "COc1ccc(CCNC(=O)[C@@]2(C)c3ccccc3C(=O)N(Cc3ccccc3)[C@H]2c2ccc(CO)cc2)cc1",
    "Measured Metric": "composite z-score",
    "Recorded Number": 1.16
  },
  {
    "Compound": "CCOC(=O)C1=C[C@@H](C(C)(C)C)N(S(=O)(=O)c2ccc(C)cc2)[C@H]1c1ccc(Cl)c(Cl)c1",
    "Measured Metric": "composite z-score",
    "Recorded Number": 1.3
  },
  {
    "Compound": "C=CCC(OC(C)=O)[C@@H]1[C@@H](N(Cc2cc3ccccc3o2)C(=O)c2ccc(C)cc2)c2cc(OCCCO)ccc2N1C(=O)c1ccc(-c2ccccc2)cc1 (some centres undefined)",
    "Measured Metric": "composite z-score",
    "Recorded Number": 0.318
  },
  {
    "Compound": "CC1CC/C=C\\[C@H]2OC34C=CCN(Cn5nnc6ccccc65)C(=O)[C@H]3N(CCCO)C(=O)[C@@H]4C2C(=O)O1 (some centres undefined)",
    "Measured Metric": "composite z-score",
    "Recorded Number": -0.119
  },
  {
    "Compound": "COCCOC(=O)N1C(=O)[C@@]2(c3cc(C#Cc4ccc(OC)cc4)ccc31)[C@H](c1ccc(OCCO)cc1)N1[C@H](c3ccccc3)[C@H](c3ccccc3)OC(=O)[C@H]1[C@@H]2C(=O)N1CCc2cc(OC)c(OC)cc2C1",
    "Measured Metric": "composite z-score",
    "Recorded Number": 1.17
  },
  {
    "Compound": "C[N+](C)(C)CCCCNC(=O)[C@H]1C[C@H]2C(=O)N3CCC[C@H]3C(=O)N2[C@H]1c1ccc(O)cc1",
    "Measured Metric": "composite z-score",
    "Recorded Number": 0.895
  },
  {
    "Compound": "OCCCc1cc[n+](Cc2cccc(OC(F)(F)F)c2)cc1",
    "Measured Metric": "composite z-score",
    "Recorded Number": 1.28
  },
  {
    "Compound": "CC1CC/C=C\\[C@H]2OC34C=CCN(c5ccc6ccccc6c5)C(=O)[C@H]3N(CCCCCO)C(=O)[C@@H]4C2C(=O)O1 (some centres undefined)",
    "Measured Metric": "composite z-score",
    "Recorded Number": -1.95
  }
]
